Study system: D(1A) dopamine receptor (Homo sapiens)
Sequence (P21728 whole entry): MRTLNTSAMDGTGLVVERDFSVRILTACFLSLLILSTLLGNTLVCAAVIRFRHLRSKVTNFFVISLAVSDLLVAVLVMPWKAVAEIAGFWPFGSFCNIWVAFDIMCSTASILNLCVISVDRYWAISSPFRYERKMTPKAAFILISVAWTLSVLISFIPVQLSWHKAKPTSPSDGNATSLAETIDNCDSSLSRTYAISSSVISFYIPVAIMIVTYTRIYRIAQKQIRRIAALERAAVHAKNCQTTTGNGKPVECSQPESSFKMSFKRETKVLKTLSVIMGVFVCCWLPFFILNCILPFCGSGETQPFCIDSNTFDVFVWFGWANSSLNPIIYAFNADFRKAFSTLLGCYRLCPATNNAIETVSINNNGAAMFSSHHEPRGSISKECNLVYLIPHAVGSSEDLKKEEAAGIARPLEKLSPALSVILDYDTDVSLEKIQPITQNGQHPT
Measurement description: Displacement of [3H]SCH23390 from human dopamine D1 receptor expressed in HEK293 cell membranes
Endpoint label: Ki (µM)
Your answer is read as µM, so omit the unit and give the number.

CCCN(CCCCNC(=O)/N=N/c1ccc(F)cc1)C1Cc2ccccc2C1    3.3
CCCN(CCNC(=O)/C=C/c1ccc(F)cc1)C1Cc2ccccc2C1    2.2
CCCN(CCNC(=O)/N=N/c1cc(F)c(F)c(F)c1)C1Cc2ccccc2C1    2.6

API: the following record is the query input.
Lab note: `CCCN(CCCCNC(=O)/C=C/c1ccc(F)cc1)C1Cc2ccccc2C1` gave Ki of 1.3

====

Protein target, amino acids: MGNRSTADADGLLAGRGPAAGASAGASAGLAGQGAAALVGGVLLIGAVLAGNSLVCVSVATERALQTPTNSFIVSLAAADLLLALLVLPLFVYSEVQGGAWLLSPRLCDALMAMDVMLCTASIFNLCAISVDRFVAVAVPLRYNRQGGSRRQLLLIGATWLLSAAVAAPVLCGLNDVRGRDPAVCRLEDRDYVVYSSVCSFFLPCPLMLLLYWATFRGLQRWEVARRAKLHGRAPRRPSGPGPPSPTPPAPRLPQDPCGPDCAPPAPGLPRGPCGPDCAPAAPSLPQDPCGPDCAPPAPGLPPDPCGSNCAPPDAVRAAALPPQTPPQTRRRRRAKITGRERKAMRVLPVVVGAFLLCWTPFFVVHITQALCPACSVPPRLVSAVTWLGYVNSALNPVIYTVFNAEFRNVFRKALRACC
Endpoint label: Ki (µM)
Your answer is read as µM, so omit the unit and give the number.

Lab note: `CCCN(CCCCNC(=O)/N=N/c1ccc(F)cc1)C1Cc2ccccc2C1` gave Ki of 0.034

====

Study system: D(3) dopamine receptor (Homo sapiens, UniProt P35462)
Sequence (P35462 whole entry): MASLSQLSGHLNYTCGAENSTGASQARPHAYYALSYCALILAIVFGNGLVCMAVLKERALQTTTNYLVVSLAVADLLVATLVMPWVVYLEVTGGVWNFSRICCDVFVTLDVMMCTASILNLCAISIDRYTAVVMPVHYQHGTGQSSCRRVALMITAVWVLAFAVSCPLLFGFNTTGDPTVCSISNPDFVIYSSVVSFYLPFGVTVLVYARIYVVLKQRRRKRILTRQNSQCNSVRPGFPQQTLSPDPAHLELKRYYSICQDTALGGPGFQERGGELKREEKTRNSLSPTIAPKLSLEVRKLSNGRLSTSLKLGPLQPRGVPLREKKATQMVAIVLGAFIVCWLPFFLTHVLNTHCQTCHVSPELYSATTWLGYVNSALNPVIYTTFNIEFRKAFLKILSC
Measurement description: Activation of wild type human dopamine D3 receptor expressed in HEK293 cells co-expressing GaqG66Di5- incubated for 120 mins by scintillation counting based myo-[3H]inositol phosphate accumulation assay
Endpoint label: pEC50
Formally, pEC50 is defined as -log10 of the concentration c, with c in mol/L.

# example entries with known answers
CCCN(CCCCNC(=O)/N=N/c1cc(F)c(F)c(F)c1)C1Cc2ccccc2C1    7.96
CCCN(CCCCNC(=O)/N=N/c1ccc(F)cc1)C1Cc2ccccc2C1    8.59

API: the following record is the query input.
Lab note: `CCCN(CCCCNC(=O)/N=N/c1ccc(F)c(F)c1)C1Cc2ccccc2C1` gave pEC50 of 8.21

====

Organism: Homo sapiens
Measurement description: Selectivity index, ratio of Ki for human dopamine D2 short receptor to Ki for human dopamine D3 receptor
Label yes (1) when Ratio Ki is at or above 6; anything below gets no (0).

CCCN(CCCCNC(=O)/N=N/c1cc(F)c(F)c(F)c1)C1Cc2ccccc2C1    no (0)
CCCN(CCNC(=O)/N=N/c1ccc(F)c(F)c1)C1Cc2ccccc2C1    no (0)
CCCN(CCNC(=O)/C=C/c1ccc(F)cc1)C1Cc2ccccc2C1    no (0)
CCCN(CCNC(=O)/N=N/c1ccc(F)cc1)C1Cc2ccccc2C1    no (0)

Request: Does Ratio Ki meet or surpass 6 for `CCCN(CCCCNC(=O)/N=N/c1ccc(F)c(F)c1)C1Cc2ccccc2C1` ?
Result: yes (1)

Request: Does Ratio Ki meet or surpass 6 for `CCCN(CCCCNC(=O)/C=C/c1ccc(F)cc1)C1Cc2ccccc2C1` ?
Result: yes (1)

Request: Does Ratio Ki meet or surpass 6 for `COc1ccccc1N1CCN(CCCCNC(=O)/N=N/c2ccc(F)c(F)c2)CC1` ?
Result: yes (1)

Request: Does Ratio Ki meet or surpass 6 for `CCCN(CCCCNC(=O)/N=N/c1ccc(F)cc1)C1Cc2ccccc2C1` ?
Result: yes (1)

Request: Does Ratio Ki meet or surpass 6 for `COc1ccccc1N1CCN(CCCCNC(=O)/N=N/c2ccc(F)cc2)CC1` ?
Result: yes (1)

Request: Does Ratio Ki meet or surpass 6 for `COc1ccccc1N1CCN(CCCCNC(=O)/N=N/c2cc(F)c(F)c(F)c2)CC1` ?
Result: yes (1)

Request: Does Ratio Ki meet or surpass 6 for `CCCN(CCNC(=O)/N=N/c1cc(F)c(F)c(F)c1)C1Cc2ccccc2C1` ?
Result: no (0)

====

Organism: Homo sapiens
Measurement description: Selectivity index, ratio of Ki for human dopamine D2 long receptor to Ki for human dopamine D3 receptor
Items are presented alongside their recorded Ratio Ki.
Note: the reply should be a number with no unit written.

# example entries with known answers
CCCN(CCCCNC(=O)/N=N/c1cc(F)c(F)c(F)c1)C1Cc2ccccc2C1    8.2
COc1ccccc1N1CCN(CCCCNC(=O)/N=N/c2ccc(F)c(F)c2)CC1    10

Lab note: `CCCN(CCCCNC(=O)/N=N/c1ccc(F)c(F)c1)C1Cc2ccccc2C1` gave Ratio Ki of 13

Lab note: `CCCN(CCNC(=O)/N=N/c1ccc(F)cc1)C1Cc2ccccc2C1` gave Ratio Ki of 3.6

====

Study system: D(2) dopamine receptor (Homo sapiens)
Sequence (P14416 whole entry): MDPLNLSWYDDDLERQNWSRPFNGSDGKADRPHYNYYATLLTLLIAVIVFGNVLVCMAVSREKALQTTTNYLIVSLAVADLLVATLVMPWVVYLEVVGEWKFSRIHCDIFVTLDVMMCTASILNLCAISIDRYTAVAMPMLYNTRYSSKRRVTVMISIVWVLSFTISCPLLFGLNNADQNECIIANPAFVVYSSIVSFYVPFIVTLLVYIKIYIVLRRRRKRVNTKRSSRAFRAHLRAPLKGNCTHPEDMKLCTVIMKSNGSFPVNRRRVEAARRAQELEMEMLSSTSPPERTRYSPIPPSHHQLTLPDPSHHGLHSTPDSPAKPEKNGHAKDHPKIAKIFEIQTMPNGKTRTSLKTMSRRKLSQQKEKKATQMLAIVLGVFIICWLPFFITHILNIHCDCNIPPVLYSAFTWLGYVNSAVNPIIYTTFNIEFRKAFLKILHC
Measurement description: Displacement of [3H]spiperone from human dopamine D2 short receptor expressed in CHO cell membranes
Endpoint label: pKi
Formally, pKi is defined as -log10 of the concentration c, with c in mol/L.

Lab note: `CCCN(CCCCNC(=O)/N=N/c1ccc(F)cc1)C1Cc2ccccc2C1` gave pKi of 7.44

Lab note: `CCCN(CCNC(=O)/N=N/c1cc(F)c(F)c(F)c1)C1Cc2ccccc2C1` gave pKi of 7.14

Lab note: `CCCN(CCNC(=O)/N=N/c1ccc(F)c(F)c1)C1Cc2ccccc2C1` gave pKi of 8.07

Lab note: `CCCN(CCCCNC(=O)/N=N/c1cc(F)c(F)c(F)c1)C1Cc2ccccc2C1` gave pKi of 7.92

Lab note: `CCCN(CCNC(=O)/N=N/c1ccc(F)cc1)C1Cc2ccccc2C1` gave pKi of 8.40

====

Measurement description: Displacement of [3H]prazosin from porcine cerebral cortex alpha1 adrenoceptor
Assay type: tissue-based, Sus scrofa
Endpoint label: Ki
Field note: include the unit after the figure.

# example entries with known answers
CCCN(CCNC(=O)/N=N/c1cc(F)c(F)c(F)c1)C1Cc2ccccc2C1    900 nM
CCCN(CCCCNC(=O)/C=C/c1ccc(F)cc1)C1Cc2ccccc2C1    120 nM
CCCN(CCCCNC(=O)/N=N/c1ccc(F)cc1)C1Cc2ccccc2C1    170 nM
CCCN(CCNC(=O)/C=C/c1ccc(F)cc1)C1Cc2ccccc2C1    58 nM

API: the following record is the query input.
Lab note: `COc1ccccc1N1CCN(CCCCNC(=O)/N=N/c2ccc(F)cc2)CC1` gave Ki of 5.2 nM

====

This document collects Ki values reported for 5-hydroxytryptamine receptor 2A (Homo sapiens).
Your answer is read as nM, so omit the unit and give the number.

CCCN(CCCCNC(=O)/C=C/c1ccc(F)cc1)C1Cc2ccccc2C1    89

Form field Ki for item `CCCN(CCNC(=O)/C=C/c1ccc(F)cc1)C1Cc2ccccc2C1` on 5-hydroxytryptamine receptor 2A (Homo sapiens): 210

====

Measurement description: Displacement of [3H][…] from porcine cerebral cortex 5HT1A receptor
Format: tissue-based, Sus scrofa
Items are presented alongside their recorded pKi.
Formally, pKi is defined as -log10 of the concentration c, with c in mol/L.

CCCN(CCCCNC(=O)/N=N/c1ccc(F)cc1)C1Cc2ccccc2C1    8.24
CCCN(CCNC(=O)/C=C/c1ccc(F)cc1)C1Cc2ccccc2C1    8.37

Lab note: `CCCN(CCNC(=O)/N=N/c1cc(F)c(F)c(F)c1)C1Cc2ccccc2C1` gave pKi of 8.48

Lab note: `CCCN(CCCCNC(=O)/C=C/c1ccc(F)cc1)C1Cc2ccccc2C1` gave pKi of 8.30

Lab note: `COc1ccccc1N1CCN(CCCCNC(=O)/N=N/c2ccc(F)cc2)CC1` gave pKi of 8.48

====

Study system: D(3) dopamine receptor (Homo sapiens)
Labelling field: enter fulfilled if recorded Ki is less than 2 nM. Enter not fulfilled if it equals or exceeds that cut-off.

The following molecules have reported results that may help.
COc1ccccc1N1CCN(CCCCNC(=O)/N=N/c2ccc(F)cc2)CC1    not fulfilled
CCCN(CCNC(=O)/N=N/c1ccc(F)c(F)c1)C1Cc2ccccc2C1    not fulfilled
CCCN(CCNC(=O)/N=N/c1cc(F)c(F)c(F)c1)C1Cc2ccccc2C1    not fulfilled
COc1ccccc1N1CCN(CCCCNC(=O)/N=N/c2cc(F)c(F)c(F)c2)CC1    fulfilled
COc1ccccc1N1CCN(CCCCNC(=O)/N=N/c2ccc(F)c(F)c2)CC1    fulfilled

Request: Take the molecule `CCCN(CCCCNC(=O)/C=C/c1ccc(F)cc1)C1Cc2ccccc2C1` and say whether its Ki is less than 2 nM.
Result: fulfilled
